Recorded activity, one value per entry.
Target or system: Serine/threonine-protein phosphatase PP1-alpha catalytic subunit (Homo sapiens) (UniProt P62136)
Sequence (P62136 whole entry, looked up): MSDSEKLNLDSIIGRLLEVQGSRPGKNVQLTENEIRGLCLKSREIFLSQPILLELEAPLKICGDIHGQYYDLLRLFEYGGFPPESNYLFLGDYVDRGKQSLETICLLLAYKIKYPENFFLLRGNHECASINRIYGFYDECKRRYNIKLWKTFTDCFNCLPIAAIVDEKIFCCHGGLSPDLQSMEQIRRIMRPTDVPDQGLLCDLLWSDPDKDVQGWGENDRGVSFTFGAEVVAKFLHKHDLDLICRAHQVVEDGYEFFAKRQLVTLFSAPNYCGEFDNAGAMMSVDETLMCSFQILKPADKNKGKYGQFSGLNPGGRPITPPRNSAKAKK
Test method notes: PP1 inhibitors, OMFP dephosphorylation, late-stage follow-up, biochemical, fluorescence, OMFP substrate, set 3 (AID 652213)
Condition: purified PP1, OMFP dephosphorylation, at 6.7 µM (top of the series)
Just the number in %, nothing appended.

compound=Oc1cccc(/C=N/Nc2cc(N3CCCC3)nc(N3CCCC3)n2)c1 units_symbol=% data_value=18.5
compound=Nc1nc(-c2ccccn2)nc(N)c1Cc1ccc(Cl)cc1Cl units_symbol=% data_value=67.1
compound=Cc1ccc(C(=O)NNc2cc(N3CCCC3)nc(N3CCCC3)n2)cc1 units_symbol=% data_value=4.62
compound=Clc1ccc(-n2nnnc2-c2cnc(-c3ccccn3)nc2-c2cccs2)cc1 units_symbol=% data_value=66.6
compound=CC(=O)C(C(C)=O)C1(O)C(=O)c2ccccc2C1=O units_symbol=% data_value=1.17
compound="Cc1nnc(NC(=O)C2C3C=CC(O3)C2C(=O)O)s1 (configuration not stated)" units_symbol=% data_value=2.61
compound=COc1cnc(-c2ccccn2)nc1Sc1ccc(Cl)cc1 units_symbol=% data_value=54.6
compound=COc1cnc(-c2ccccn2)nc1Sc1ccc(F)cc1 units_symbol=% data_value=53.8

Asked: Returns the measured activity for the input compound. Input: `Oc1ccc(/C=N/Nc2cc(N3CCOCC3)nc(N3CCOCC3)n2)c(O)c1`
Given back: 7.02

Asked: Quick one: activity for `Cc1ccc(C(=O)NC2(O)C(=O)c3ccccc3C2=O)cc1C` ?
Given back: 1.19

Asked: Which value of activity has been reported for `CCOc1ccc(NC(=S)Nc2ccc3nsnc3c2)cc1` in the records?
Given back: 2.39

Asked: Look at this compound and give its reported activity. `CCOC(=O)c1nn(-c2ccc(C)cc2)c(=O)c2c(N)scc12`
Given back: 4.75

Asked: activity lookup needed for CCOC(=O)c1cnc(-n2nc(C)cc2C)nc1NC(C)c1ccccc1 (configuration not stated) , thanks.
Given back: 69.4

Asked: Look up activity for this compound: `CCOC(=O)c1cnc(-n2nc(C)cc2C)nc1NC1CCCCC1`
Given back: 59.7

Asked: Need activity, item `COc1cnc(-c2ccccn2)nc1Sc1ccccc1Cl`
Given back: 68.7

Asked: Bench note: what activity did `COc1ccc(Cl)cc1C(=O)Nc1cccc(-c2ccc3nncn3n2)c1` show?
Given back: 56.6

Asked: Find the recorded activity belonging to `O=C(O)c1cc(-c2ccc(Cl)c(Cl)c2)n(-c2ccccc2)n1` and report it.
Given back: 59.9

* * *

Target or system: Serine/threonine-protein phosphatase PP1-alpha catalytic subunit (Homo sapiens) (UniProt P62136)
Test method notes: PP1 inhibitors, OMFP dephosphorylation, late-stage follow-up, biochemical, fluorescence, OMFP substrate, set 3 (AID 652213)
Condition: purified PP1, OMFP dephosphorylation, at 6.7 µM (top of the series)
Measured quantity: activity (%)
Report as a plain number; the unit % is understood.

chemical_string=COc1ccc2c(Cl)c(C(=O)N/N=C/c3ccc4c(c3)OCO4)sc2c1 data_value=20.2

Asked: Field request: activity | item: `O=C(NC1(O)C(=O)c2ccccc2C1=O)c1ccc(C(F)(F)F)cc1`
Given back: 8.58

Asked: Reported activity, compound `COc1cnc(-c2ccccn2)nc1Oc1cccc(Cl)c1` : ____
Given back: 46.4

Numbers sourced from PubChem BioAssay AID652213.
